Tested on: VeroE6-TMPRSS2 cells
Settings: 48 hours, CellTiter-Glo
recorded metric: CC50 (µM)
A number alone suffices; assume µM.

Exam item: Query (compound): O=C(NCc1ccc2ccccc2c1)[C@@H]1CC[C@H]2N1C(=O)[C@@H](Cc1ccccc1)N1C(=O)N(Cc3ccccc3)C(=O)N(Cc3ccccc3)[C@]21O [Compound 1D] ; field requested: CC50
Marked response: 145

* * *

Test system: Caco-2 cells
Settings: 48 hours, CellTiter-Glo
recorded metric: CC50

Exam item: Query (compound): O=C(NCc1ccc2ccccc2c1)[C@@H]1CC[C@H]2N1C(=O)[C@@H](Cc1ccccc1)N1C(=O)N(Cc3ccccc3)C(=O)N(Cc3ccccc3)[C@]21O ; field requested: CC50
Marked response: > 400 µM
